// values below are reported GI50
- Tested on: M14
- measurement notes: NCI tumour cell line growth inhibition, 48 h
Calls of active or inactive are those of the source. Rule as the data show it: active = GI50 up to about 1.1 µM and inactive = higher.

1. COc1ccc(OC(C)C(=O)O)c2c(=O)ccccc12 (stereo unspecified) :: > 100 µM (inactive)
2. O=[N+]([O-])c1nccn1CC(O)CN1CCCCC1 (stereo unspecified) [PIMONIDAZOLE] :: > 100 µM (inactive)
3. N#CC(C#N)=c1ccc(=C2N3CCCC3CN2C23CC4CC(CC(C4)C2)C3)cc1 (stereo unspecified) :: > 100 µM (inactive)
4. CC(=O)NC(CC(C)C)C(=O)NC(CC(C)C)C(=O)NC(C=O)CCCNC(=N)N (stereo unspecified) :: > 100 µM (inactive)
5. COC1(OC)C2(Cl)C(Cl)=C(Cl)C1(Cl)C1C=CC=CC12 (stereo unspecified) :: 57.5 µM (inactive)
6. C=C1CCC(OC(C)=O)C2(C)C(OC(C)=O)CC3OC3(C)C2C(OC(C)=O)C2C(C)C(=O)OC2C1Cl (stereo unspecified) :: > 100 µM (inactive)
7. O=C1Nc2ccccc2C1Cc1ccc([N+](=O)[O-])cc1 (stereo unspecified) :: > 100 µM (inactive)
8. COc1ccc2c(c1)CCC/C2=N\NS(=O)(=O)c1c(C)cc(C)cc1C :: 33.2 µM (inactive)
9. Cc1ccc(C2C(C(=O)C(C)(C)C)N2S(=O)(=O)c2ccc(C)cc2)cc1 (stereo unspecified) :: 17.8 µM (inactive)
10. CNC1(c2cc3ccccc3s2)CCCCC1 :: 18 µM (inactive)

Next compound, please.
Fill in: GI50 of NC(=O)c1ncn2c1NCC1OC2C(O)C1O (stereo unspecified) is ___
> 100 µM (inactive)

---

- Tested on: IGROV-1
- measurement notes: NCI tumour cell line growth inhibition, 48 h
The source made the active and inactive calls. No stated cut-off is given here; in the data, active = GI50 up to about 1.1 µM and inactive = higher.
// values below are reported GI50

Example entries begin here.
1. O=C1CC2(CCC3=C(O2)c2ccccc2NC(=O)C3)C(=O)c2ccccc2N1 (stereo not given) :: > 100 µM (inactive)
2. CN(C)C(=S)/N=c1\ss/c(=N\S(=O)(=O)c2ccccc2)n1C :: > 100 µM (inactive)
3. C=CCN(c1cc(OC)c2[nH]c(C(=O)O)c(C)c2c1[N+](=O)[O-])S(C)(=O)=O :: > 100 µM (inactive)
4. Cc1sc2nc3n(c(=O)c2c1C)N=CN(c1ccc(F)cc1)C3 :: 61.9 µM (inactive)
5. C[C@@H](N[C@H]1CCC[C@@H]1O)c1ccccc1.C[C@@H](N[C@H]1CCC[C@H]1O)c1ccccc1 :: > 100 µM (inactive)
6. CC1(C)C2CCC13CS(=O)(=O)N1O[C@]13C(=O)O2 (stereo not given in full) :: > 100 µM (inactive)
7. COc1cc(Cn2c3ccccc3c3cc(C)cc(OC)c32)cc2c1[nH]c1ccccc12 :: > 25 µM (inactive)
8. CC1=C/C(=N\NC(N)=S)C(C(O)(C(F)(F)F)C(F)(F)F)C(C)(C)C1 (stereo not given) :: > 10 µM (inactive)

Fill in: GI50 of CCn1c(SCc2nnc(Nc3ccccc3)s2)nc2ccccc2c1=O is ___
3.62 µM (inactive)

Proceed to OC(Cc1ccc2ccccc2n1)(C(F)(F)Cl)C(F)(F)Cl
> 10 µM (inactive)

Provenance of the data: ChEMBL document CHEMBL1201862
